Reference for the values: PubChem BioAssay (NCI)

System: SF-539 CNS
Protocol Description: NCI tumour cell line growth inhibition, 48 h
Observable: TGI (µM)
Express it in µM; write the number only.

Take a look at these entries with their results.
Molecule: Fc1ccc2[nH]cc(Cc3c[nH]c4ccc(F)cc34)c2c1
TGI, µM: 33.6
//
Molecule: Cc1c2cnccc2c(C)c2c1[nH]c1ccc(O)cc12
TGI, µM: 2.41
//
Molecule: CC(C)OP(=O)(OC(C)C)C(C(C)C)N(C)/C(N)=N\C1=NC(C(F)(F)F)(C(F)(F)F)N=C(C(C(F)(F)F)C(F)(F)F)O1 (stereo unspecified)
TGI, µM: 11.8

# return recorded TGI for entry COc1ccc(C(=O)/C=C/c2ccc(Cl)cc2)cc1S(=O)(=O)Nc1c(N)nc(SC)[nH]c1=O
5

* * *

# maps each entry to its TGI
Tested on: DU-145 prostate
Protocol Description: NCI tumour cell line growth inhibition, 48 h

Take a look at these entries with their results.
Molecule Smiles: CC1=C(C(=O)Nc2cccc3c2C(=O)NC3=O)CC(C(=O)Nc2cccc3c2C(=O)NC3=O)=C(C)N1
Assay Value: > 100 µM

Molecule Smiles: c1csc(-c2cscc2-c2ccsc2)c1
Assay Value: > 100 µM

# return recorded TGI for entry Fc1ccc(-c2nc3n(c2-c2ccncc2)CCS3)cc1
> 25 µM

* * *

# maps each entry to its TGI
Tested on: HCT-15 colon
Protocol Description: NCI tumour cell line growth inhibition, 48 h

Take a look at these entries with their results.
Compound: Cn1c(O)c(C(=O)Nc2cccs2)c(=O)[nH]c1=S
Assay Value: 43 µM
--
Compound: CCc1ccc(NC(=O)Nc2c[nH]c3ccccc23)cc1
Assay Value: > 55.2 µM
--
Compound: NC1CC(=O)c2cc(Cl)sc21 (stereo unspecified)
Assay Value: > 100 µM
--
Compound: C=C1C(=O)C([Si](C)(C)C)=C2C=C(C)C3(CC3)C12C (stereo unspecified)
Assay Value: > 100 µM
--
Compound: O=C1C/C(=C/c2ccc(/C=C3/CC(=O)N(c4cccc(Br)c4)C3=O)cc2)C(=O)N1c1cccc(Br)c1
Assay Value: > 100 µM
--
Compound: NC(=O)[C@H]1CCN(c2ncnc(N)c2F)C[C@@H]1N1CCC[C@@H](Nc2cc(Cl)cc(C(F)(F)F)c2)C1=O
Assay Value: 48.2 µM
--
Compound: Cc1ccc2c(c1)C1(C)OC(CC(N)C1O)O2 (stereo unspecified)
Assay Value: > 100 µM
--
Compound: N#CC(C#N)=Cc1ccc(-c2ccc(-c3nc4ccccc4s3)cc2)o1
Assay Value: 50.4 µM
--
Compound: Cc1ccc(NCC2CC/C(=C\c3ccc(Cl)cc3)C2=O)cc1 (stereo unspecified)
Assay Value: 9.41 µM
--
Compound: COc1ccc(C2c3cc4c(cc3C(O)C3CCC(=O)N23)OCO4)cc1 (stereo unspecified)
Assay Value: > 100 µM

# return recorded TGI for entry O=C(O)c1c[nH]c2c(Sc3ccccc3)nccc2c1=O
> 100 µM

# return recorded TGI for entry O=S1(=O)c2cnccc2NC(=NCc2cccc3ccccc23)N1c1ccccc1
> 100 µM

# return recorded TGI for entry CSc1nnc(CCSc2ccnc3c(C(F)(F)F)cccc23)o1
> 100 µM

# return recorded TGI for entry CC(=O)/C(=C\c1ccco1)C(=O)Nc1ccccc1
> 100 µM

# return recorded TGI for entry CC1=C2CCCC2C/C(=N/Nc2ccc([N+](=O)[O-])cc2[N+](=O)[O-])CC1 (stereo unspecified)
> 100 µM

# return recorded TGI for entry NCC1(N2CCOCC2)C2CCCC21CO (stereo unspecified)
> 100 µM
